Taken from a melting point compilation (Tetko et al.).

quantity_measured: melting point

Data request: Could you share which melting point value was measured for O=C(O)c1cccc(OCc2ccc(F)cc2)c1 ?
Data returned: 143 to 145 °C

Data request: Could you share which melting point value was measured for CC(C)(NC(=O)Nc1ccccc1)C(=O)O ?
Data returned: 165 to 167 °C

Data request: Could you share which melting point value was measured for N#Cc1ccc(-c2cnc(CCl)o2)cc1 ?
Data returned: 124 to 126 °C

Data request: Could you share which melting point value was measured for CC(C)C(N)c1nn[nH]n1 (configuration not stated) ?
Data returned: 272 to 274 °C

Data request: Could you share which melting point value was measured for N#CCC(=O)c1cc(Cl)cc(Cl)c1 ?
Data returned: 139 to 141 °C

Data request: Could you share which melting point value was measured for Cc1nc(=NCC(=O)O)c2cc(-c3ccccc3)sc2[nH]1 ?
Data returned: 257 to 259 °C

Data request: Could you share which melting point value was measured for O=C(O)Cn1cnc2ccc(Br)cc2c1=O ?
Data returned: 277 to 279 °C

Data request: Could you share which melting point value was measured for Cc1cccnc1NC(=O)C1CCCNC1 (configuration not stated) ?
Data returned: 123 to 125 °C

Data request: Could you share which melting point value was measured for O=C(O)C(Cc1ccccc1Br)Cc1ccccc1Br ?
Data returned: 145 to 147 °C

Data request: Could you share which melting point value was measured for O=C1Nc2c(F)cc(Cl)cc2C1=O ?
Data returned: 219 to 221 °C

Data request: Could you share which melting point value was measured for COC(=O)CNc1ncc(C)cc1[N+](=O)[O-] ?
Data returned: 107 to 109 °C

Data request: Could you share which melting point value was measured for N#Cc1cccc(Oc2ccc(N)cc2)c1 ?
Data returned: 39 to 41 °C

Data request: Could you share which melting point value was measured for Cc1nc[nH]c1C ?
Data returned: 103 to 105 °C

Data request: Could you share which melting point value was measured for O=C(O)CCCSc1nc2ccccc2[nH]1 ?
Data returned: 120 to 122 °C
